meta.source: PubChem BioAssay (NCI)

Test system: OVCAR-8 ovarian
Test: NCI-60 one-dose screen, 48 h (100 = growth as untreated, 0 = no growth, -100 = all killed)
Conditions: 10 µM unless noted
The panel holds about 83,000 compounds, 20% with a hit somewhere; the sample as a whole holds those more often.
measurement_label: growth (%)
Could you give me the number in %? Just the number is fine.

Exercise: Which growth value belongs to "CC[C@H](Nc1ncnc2nc[nH]c12)c1nc2cccc(CC(=O)c3ccc(C(=O)NO)cc3)c2c(=O)n1-c1ccccc1" ?
Solution: 81.3

Exercise: Which growth value belongs to "C=C1C(=O)O[C@H]2[C@H]1CC/C(COC(=O)CCCCCCCCC(=O)OC/C1=C/CC[C@@]3(C)O[C@H]3[C@H]3OC(=O)C(=C)[C@@H]3CC1)=C\CC[C@@]1(C)O[C@@H]21" ?
Solution: 10.2

Exercise: Which growth value belongs to "COc1cccc2c1-c1ccccc1C2=O" ?
Solution: 21.5

Exercise: Which growth value belongs to "CN1C(=O)c2cc(Cl)nc3c(NC(=O)c4cccc(Cl)c4)c(Cl)c(NC(=O)c4cccc(Cl)c4)c1c23" ?
Solution: 2.78

Exercise: Which growth value belongs to "CNS(=O)(=O)c1cccc(-c2ccc3c4c(n(C)c(=O)c3c2)-c2ccccc2C4=O)c1" ?
Solution: 43.9

Exercise: Which growth value belongs to "NC(=O)C(O)(c1ccccc1)c1ccccc1" ?
Solution: 98.2

Exercise: Which growth value belongs to "O=C1C(Cl)=C(Nc2ccc3c(c2NC2=C(Cl)C(=O)c4ccccc4C2=O)C(=O)c2ccccc2C3=O)C(=O)c2ccccc21" ?
Solution: 22.3

Exercise: Which growth value belongs to Cc1nc2sc(C(=O)Nc3cccc4ccccc34)c(N)c2cc1C(C)O (stereo not drawn) ?
Solution: 16.2
